- TESTED_TARGET: T1, D^563H EGFR (full-length human, FLAG tag) on BaF/3 cells (human, UniProt P00533 25-1210)
- T1 construct: whole, on cells
- PROCEDURE_TEXT: Scatchard, 125I-EGF on BaF/3 cells, Kd1 (high-affinity site)
MEASURED_METRIC: Kd

Need Kd of Murine EGF, purified from mouse submaxillary glands (ligand, UniProt P01132 977-1029, looked up, iodinated with 125I (Iodogen) as tracer in the Scatchard assays, mature; also called ^125I-EGF) NSYPGCPSSYDGYCLNGGVCMHIESLDSYTCNCVIGYSGDRCQTRDLRWWELR , thanks.
17.6 pM
